Details: buffer; pH 7.4; 200.0 µM
solubility kinetic by entry:

Would you please look over these solved cases?
- Molecule: "COc1ccc(S(=O)(=O)N2CCc3ccccc32)cc1C(=O)Nc1ccc(NC(C)=O)cc1"
  Quantity measured: "solubility kinetic"
  Endpoint result: "7.2 µg/mL"
- Molecule: "COCc1cc(C)nc(SCC(=O)NCC2CCCO2)c1C#N (configuration not stated)"
  Quantity measured: "solubility kinetic"
  Endpoint result: "> 50.3 µg/mL"
- Molecule: "C=CCNC(=O)N[C@@H](Cc1ccccc1)C(=O)OC"
  Quantity measured: "solubility kinetic"
  Endpoint result: "> 39.3 µg/mL"
- Molecule: "CC(NC(=O)c1ccccc1C(=O)O)c1ccc(-n2ccnc2)cc1 (configuration not stated)"
  Quantity measured: "solubility kinetic"
  Endpoint result: "> 50.3 µg/mL"
- Molecule: "CN(Cc1ccccc1)C(=O)CN(C)S(=O)(=O)c1ccc(F)cc1"
  Quantity measured: "solubility kinetic"
  Endpoint result: "> 52.6 µg/mL"
- Molecule: "CSc1ccccc1C(=O)OCC(=O)N1CCCC1=O"
  Quantity measured: "solubility kinetic"
  Endpoint result: "> 44 µg/mL"
- Molecule: "CCCOc1ccc(C2=CSC3=NCCN23)cc1Cl"
  Quantity measured: "solubility kinetic"
  Endpoint result: "40.4 µg/mL"
- Molecule: "O=C(O)c1ccc(/C=C/c2nc3ccccc3c(=O)[nH]2)cc1"
  Quantity measured: "solubility kinetic"
  Endpoint result: "> 43.8 µg/mL"
- Molecule: "Cc1ccc(C(=O)NC(C)c2ccc(-n3ccnc3)cc2)c(C)c1 (configuration not stated)"
  Quantity measured: "solubility kinetic"
  Endpoint result: "46 µg/mL"
- Molecule: "CN=CC1=C(O)C(C(=O)OC)C(C)(C)CC1=O (configuration not stated)"
  Quantity measured: "solubility kinetic"
  Endpoint result: "> 35.9 µg/mL"

Ask | GET /values?readout=solubility kinetic&item= CC1CN(c2ccnc3cc(Cl)ccc23)CC(C)O1 (configuration not stated)
Reply | > 41.5 µg/mL

Ask | Thanks! And `O=[N+]([O-])c1ccc(COc2cccnc2)cc1` ?
Reply | > 34.5 µg/mL

====

solubility kinetic by entry:
Details: buffer; pH 7.4; 200.0 µM

Would you please look over these solved cases?
- Compound: "CC(C)N(Cc1nc(-c2ccccc2)no1)C(=O)C(Cl)(Cl)Cl"
  Quantity measured: "solubility kinetic"
  Endpoint result: "5.9 µg/mL"
- Compound: "O=C(CCc1ccccc1)Nc1cccc(S(=O)(=O)N2CCOCC2)c1"
  Quantity measured: "solubility kinetic"
  Endpoint result: "50.6 µg/mL"
- Compound: "O=C(NCc1ccc2c(c1)OCO2)Nc1ccc(F)cc1"
  Quantity measured: "solubility kinetic"
  Endpoint result: "3.1 µg/mL"
- Compound: "Cc1nc(SC(C)C(=O)NCc2ccc3c(c2)OCO3)nc(C)c1C (stereo not given)"
  Quantity measured: "solubility kinetic"
  Endpoint result: "> 53.9 µg/mL"
- Compound: "COc1ccc(Nc2c(-c3ccco3)nc3cccc(C)n23)cc1"
  Quantity measured: "solubility kinetic"
  Endpoint result: "1.2 µg/mL"

Ask | GET /values?readout=solubility kinetic&item= `COC(=O)Nc1nc2ccc(C(=O)c3cccs3)cc2[nH]1`
Reply | 0.3 µg/mL

Ask | Thanks! And `O=C(Nc1ccc(F)c([N+](=O)[O-])c1)C(=O)c1c(O)[nH]c2ccccc12` ?
Reply | > 51.5 µg/mL

Ask | Thanks! And `CCN(CC(=O)N1CCCC1)S(=O)(=O)c1ccccc1` ?
Reply | > 44.5 µg/mL

Ask | Thanks! And `Cc1cccc(C(=O)OCC(=O)NC(=O)c2ccccc2)c1O` ?
Reply | < 0.7 µg/mL

Ask | Thanks! And `Cc1ccc(OCC(=O)NC(=S)Nc2ccc(Br)cn2)cc1` ?
Reply | 0.5 µg/mL

Ask | Thanks! And `CCn1cnc2c(oc3ccccc32)c1=O` ?
Reply | 31.9 µg/mL

Ask | Thanks! And `O=C(CN1CCc2ccccc2C1)Nc1ccccc1F` ?
Reply | 39.4 µg/mL

Ask | Thanks! And `O=C(OCc1nc2ccccc2s1)c1ccco1` ?
Reply | 35.4 µg/mL

Ask | Thanks! And `O=C(NCc1ccco1)c1ccc([N+](=O)[O-])cc1Cl` ?
Reply | 40 µg/mL

Ask | Thanks! And `CCCCOc1ccc(C(=O)NCCOc2cccc(OC)c2)cc1` ?
Reply | 4 µg/mL

Ask | Thanks! And `O=C(COc1ccccc1Cl)NCCNC(=O)c1cccnc1` ?
Reply | > 50.1 µg/mL

Ask | Thanks! And `Cc1ccc(C(=O)CNc2ccc(C)cc2C)cc1` ?
Reply | 2.8 µg/mL

Ask | Thanks! And `Cc1ccc(OCC(=O)Nc2ccccc2F)cc1` ?
Reply | 4.6 µg/mL

Ask | Thanks! And CC1(C(=O)O)CCC(C(=O)N2CCCCC2)C1(C)C (stereo not given) ?
Reply | > 40.1 µg/mL

Ask | Thanks! And COc1ccc(C)cc1NC(=S)NC(C)c1ccc(OC)c(OC)c1 (stereo not given) ?
Reply | 13.3 µg/mL

Ask | Thanks! And `CC(=NCCCn1ccnc1)c1c(O)n(-c2ccccc2)c(=O)[nH]c1=O` ?
Reply | > 53 µg/mL

Ask | Thanks! And `Cc1onc(-c2ccccc2)c1C(=O)NCC(=O)Nc1cc(Cl)ccc1Cl` ?
Reply | 9.4 µg/mL

Ask | Thanks! And `CCN(Cc1ccncc1)C(=O)CSc1ccc2ccccc2c1` ?
Reply | 32.6 µg/mL

Ask | Thanks! And `COC(=O)c1cccc(N2CCCC2=O)c1` ?
Reply | > 32.9 µg/mL

Ask | Thanks! And `COc1ccc(OCC(=O)Nc2cc(OC)ccc2N2CCCCC2)cc1` ?
Reply | < 0.4 µg/mL
